Collected pIC50 values appear next to each entry.
system-under-test: human TLR9 (Homo sapiens, UniProt Q9NR96)
Sequence (Q9NR96 26-1032): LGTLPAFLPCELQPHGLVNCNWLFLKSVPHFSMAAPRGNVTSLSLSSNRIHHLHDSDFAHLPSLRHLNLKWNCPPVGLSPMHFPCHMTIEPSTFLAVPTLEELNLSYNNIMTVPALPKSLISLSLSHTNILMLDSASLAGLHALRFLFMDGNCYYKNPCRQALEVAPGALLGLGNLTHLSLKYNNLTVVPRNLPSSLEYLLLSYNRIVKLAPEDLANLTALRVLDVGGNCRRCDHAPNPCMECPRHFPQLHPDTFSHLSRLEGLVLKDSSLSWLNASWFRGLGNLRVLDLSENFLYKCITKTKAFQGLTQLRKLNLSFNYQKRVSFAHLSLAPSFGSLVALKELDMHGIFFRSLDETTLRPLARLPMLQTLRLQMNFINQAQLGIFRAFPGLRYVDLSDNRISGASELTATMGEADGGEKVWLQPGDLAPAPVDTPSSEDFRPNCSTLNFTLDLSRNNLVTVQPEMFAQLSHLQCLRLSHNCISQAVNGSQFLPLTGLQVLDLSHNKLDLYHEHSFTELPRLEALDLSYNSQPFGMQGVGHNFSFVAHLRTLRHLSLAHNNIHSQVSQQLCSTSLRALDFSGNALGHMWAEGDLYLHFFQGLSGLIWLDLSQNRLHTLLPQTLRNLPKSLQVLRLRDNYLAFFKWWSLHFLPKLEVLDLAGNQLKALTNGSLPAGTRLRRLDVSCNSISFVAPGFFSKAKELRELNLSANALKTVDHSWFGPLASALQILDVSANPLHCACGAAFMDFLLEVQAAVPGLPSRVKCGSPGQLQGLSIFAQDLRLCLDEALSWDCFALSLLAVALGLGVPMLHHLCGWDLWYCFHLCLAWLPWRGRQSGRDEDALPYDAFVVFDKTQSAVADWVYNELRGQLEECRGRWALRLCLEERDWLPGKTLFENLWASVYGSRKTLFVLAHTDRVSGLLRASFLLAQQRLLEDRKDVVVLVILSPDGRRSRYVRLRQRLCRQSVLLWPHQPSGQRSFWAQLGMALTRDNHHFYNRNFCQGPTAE
assay: TLR9 inhibition reporter assay (HEK-Blue cells, SEAP reporter, ODN2006 stimulation)
particulars: HEK-Blue cells overexpressing human TLR9, SEAP reporter, ODN2006 5 nM
Field pIC50 (float): negative decimal logarithm of the concentration in molar.

>>> numeric_result("COc1cc(-c2[nH]c3ccc(C4CCC(NC5COC5)CC4)cc3c2C(C)C)cn2ncnc12 (centres unmarked) [Example 90]")
5.75
>>> numeric_result("COCCN(C)C1CCC(c2ccc3[nH]c(-c4cc(OC)c5ncnn5c4)c(C(C)C)c3c2)CC1 (single isomer, unassigned) [Example 79]")
5.59
>>> numeric_result("COc1cc(-c2[nH]c3ccc(C4CCCN(C5COC5)C4)cc3c2C(C)C)cn2ncnc12 (centres unmarked) [Example 243]")
4.89
>>> numeric_result("Cc1c(-c2[nH]c3ccc(C4CNCCO4)cc3c2C(C)C)cn2ncnc2c1C (centres unmarked) [Example 286]")
5.27
>>> numeric_result("Cc1c(-c2[nH]c3ccc(C4CC(NCC#N)C4)cc3c2C(C)C)cn2ncnc2c1C (centres unmarked) [Example 567]")
4.57

Given the entry COc1ccc(-c2[nH]c3ccc(C4CCC(O)CC4)cc3c2C(C)C)cc1OC (centres unmarked) [Example 452] , what pIC50 was observed with human TLR9 (Homo sapiens, UniProt Q9NR96)?
4.33

Test system human TLR9 (Homo sapiens, UniProt Q9NR96); read-out pIC50; what value for COc1cc(-c2[nH]c3ccc(C4CC(N)C4)cc3c2C(C)C)cn2ncnc12 (centres unmarked) [Example 568] ?
6.01

Query for human TLR9 (Homo sapiens, UniProt Q9NR96): what pIC50 does the record show for CCc1c(-c2ccnc(C)c2)[nH]c2ccc(CC3CCCN3)cc12 (centres unmarked) [Example 420] ?
5.98
